# target.under.test: PIM1 (Homo sapiens, UniProt P11309)
# Sequence (P11309 whole entry): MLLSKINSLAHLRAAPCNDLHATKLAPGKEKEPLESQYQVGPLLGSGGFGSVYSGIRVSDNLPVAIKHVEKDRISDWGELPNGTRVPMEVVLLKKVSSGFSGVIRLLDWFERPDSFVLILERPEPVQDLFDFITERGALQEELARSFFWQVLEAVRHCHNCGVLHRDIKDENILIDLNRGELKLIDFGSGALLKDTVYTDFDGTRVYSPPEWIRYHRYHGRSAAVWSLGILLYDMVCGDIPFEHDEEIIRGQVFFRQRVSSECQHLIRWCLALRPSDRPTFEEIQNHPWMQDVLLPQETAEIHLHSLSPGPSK
# assay.details: KinaseGlo Pim1 ATP depletion assay
# Format: biochemical
Mark 1 only for IC50 values smaller than 8 nM; exact matches and larger values are -1.

> print(dat)
                                   compound  assigned.label
1  O=C(Nc1cnccc1[C@H]1C[C@@H](O)[C@H](O)[C@@H](C2CC2)O1)c1cccc(-c2c(F)cccc2F)n1 [Example 208]               1
2  Nc1cnc(-c2c(F)cccc2F)nc1C(=O)Nc1cnccc1[C@H]1C[C@@H](O)[C@@]2(O)CCCC[C@H]2O1 [Example 172]               1
3  N#CC[C@H]1O[C@@H](c2ccncc2NC(=O)c2ccc(C#N)c(-c3c(F)cccc3F)n2)CC[C@@H]1O [Example 45]              -1
4  C[C@H]1O[C@@H](c2ccncc2NC(=O)c2nc(-c3c(F)cccc3F)ncc2N)C[C@@H](O)[C@]1(C)O [Example 146]               1
5  CC[C@H]1O[C@@H](c2ccncc2NC(=O)c2c[nH]cc(-c3ccccc3F)c2=O)C[C@@H](O)[C@@H]1O [Example 202]              -1
6  O=C(Nc1cnccc1C1OCCCO1)c1ccc(F)c(-c2c(F)cccc2F)n1 [Example 118]               1

###

# target.under.test: PIM1 (Homo sapiens, UniProt P11309)
# assay.details: Pim 1 AlphaScreen assay (high ATP)
# Format: biochemical
# measurement.setup: read-out: Pim1 IC50
# Experimental: Pim1, Pim2, Pim3 AlphaScreen Assay Pim 1, Pim 2 & Pim 3 AlphaScreen assays using high ATP (11-125×ATP Km) were used to determine the biochemical activity of the inhibitors. The activity of Pim 1, Pim 2, & Pim 3 is measured using a homogeneous bead based system quantifying the amount of phosphorylated peptide substrate resulting from kinase-catalyzed phosphoryl transfer to a peptide substrate. […]
pIC50: −log10 of the molar value.
measured.metric: pIC50

> print(dat)
                                   compound  measured.metric  assay.result
1  C[C@]1(O)[C@H](N)C[C@H](c2ccncc2NC(=O)c2csc(-c3c(F)cccc3F)n2)O[C@@H]1C1CC1            pIC50          8.90
2  C[C@@H]1O[C@H](c2ccncc2NC(=O)c2csc(-c3c(F)cccc3F)n2)C[C@H](N)[C@@]1(C)O            pIC50          7.99
3  CC(C)(C)[C@H]1O[C@@H](c2ccncc2NC(=O)c2csc(-c3c(F)cccc3F)n2)C[C@@H](N)[C@@H]1O            pIC50          9.80
4  C[C@@]1(O)[C@@H](O)C[C@@H](c2ccncc2NC(=O)c2ccc(F)c(-c3c(F)cccc3F)n2)O[C@H]1C1CC1            pIC50          7.04
5  CC[C@H]1O[C@@H](c2ccncc2NC(=O)c2ccc(F)c(-c3c(F)cccc3F)n2)C[C@@H](N)[C@]1(C)O (stereo in doubt)            pIC50          8.58
6  Cc1cc(F)c(-c2nc(C(=O)Nc3cnccc3[C@H]3C[C@@H](N)[C@H](O)[C@@H](C(C)(C)C)O3)ccc2F)c(F)c1            pIC50         10.52
